These entries and their values trace back to ChEMBL document CHEMBL5291721.

Biological target: 5-hydroxytryptamine receptor 2B (Homo sapiens, UniProt P41595); further: assay procedure not described here
Sequence (P41595 whole entry): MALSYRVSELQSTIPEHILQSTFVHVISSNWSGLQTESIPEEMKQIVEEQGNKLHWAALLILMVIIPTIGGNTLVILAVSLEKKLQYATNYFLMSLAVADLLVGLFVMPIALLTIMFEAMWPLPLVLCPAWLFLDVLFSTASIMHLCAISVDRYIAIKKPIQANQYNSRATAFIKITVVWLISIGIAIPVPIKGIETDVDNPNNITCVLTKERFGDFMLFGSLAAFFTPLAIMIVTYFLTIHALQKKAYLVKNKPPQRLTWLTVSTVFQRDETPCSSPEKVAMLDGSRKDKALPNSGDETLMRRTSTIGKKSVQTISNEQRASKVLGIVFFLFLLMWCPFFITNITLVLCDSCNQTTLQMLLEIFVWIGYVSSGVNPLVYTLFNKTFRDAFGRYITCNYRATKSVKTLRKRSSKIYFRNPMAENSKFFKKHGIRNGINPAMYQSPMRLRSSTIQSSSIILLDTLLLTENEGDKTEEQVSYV
Type: functional, cell-based
Reported AC50 values are given for each entry in this list.

The examples below pair each entry with its known result.
CN[C@]1(c2ccccc2Cl)CCCCC1=O
> 30 µM
O=c1c(O)c(-c2ccc(O)c(O)c2)oc2cc(O)cc(O)c12
> 30 µM
Cc1ccc(C)c(OCCCC(C)(C)C(=O)O)c1
4.4 µM
CCOC(=O)c1c(CSc2ccccc2)n(C)c2cc(Br)c(O)c(CN(C)C)c12
> 30 µM
CC(c1cc2ccccc2s1)N(O)C(N)=O (centres undefined)
> 10 µM
CC(C)Cc1ccc([C@H](C)C(=O)O)cc1
> 30 µM
CC(C)C[C@H](NC(=O)[C@@H](O)[C@H](N)Cc1ccccc1)C(=O)O
> 30 µM
O=C1Nc2ccc(Cl)cc2C(c2ccccc2Cl)=NC1O (centres undefined)
> 10 µM

Need AC50 of "CCOC(=O)[C@@H](N)Cc1ccc(-c2cc(O[C@H](c3ccc(Cl)cc3-n3ccc(C)n3)C(F)(F)F)nc(N)n2)cc1" , thanks.
> 30 µM

Follow-up entry: "Cc1ccnc2c1NC(=O)c1cccnc1N2C1CC1"
> 10 µM
